From: PubChem BioAssay (NCI)

Record form. Attribute: TGI. Fill in for each entry.
# Tested on: A549 NSCLC
# ASSAY_DETAILS: NCI tumour cell line growth inhibition, 48 h
Where a SMILES comes first, the peptide text is derived from it.

# annotated cases, reported TGI shown
>  <MOLECULE>
O=C1C=CC2(NN=C(c3ccccc3)N2c2ccccc2)c2cccc(O)c21 (stereo not drawn)

>  <TESTED_ON>
A549 NSCLC

>  <TGI>
5 µM

$$$$
>  <MOLECULE>
O=C(OCc1ccccc1)c1nc2ccccc2n1S(=O)(=O)c1ccccc1

>  <TESTED_ON>
A549 NSCLC

>  <TGI>
> 100 µM

$$$$
>  <MOLECULE>
CN1C(=O)N(C)C2(O)c3ccccc3C(=O)C12O (stereo not drawn)

>  <TESTED_ON>
A549 NSCLC

>  <TGI>
> 100 µM

$$$$
>  <MOLECULE>
CCC(C)C1NC(=O)C(CCCCN)NC(=O)C(CCCCN)NC(=O)C(CC(C)C)NC(=O)C(CCCCN)NC(=O)C(C(C)CC)NC(=O)C(C(C)C)NC(=O)C(C(C)CC)NC(=O)C(CCCCN)NC(=O)C(CCCCN)NC(=O)C(C)NC(=O)C(CCCCN)NC(=O)C(CC(C)C)NC1=O (stereo not drawn) (cyclo(AKKIVIKLKKILK); configuration not given here)

>  <TESTED_ON>
A549 NSCLC

>  <TGI>
9.64 µM

$$$$
>  <MOLECULE>
CCCCNC(=O)OCCN=C1c2ccccc2C(Br)C(Br)c2ccccc21 (stereo not drawn)

>  <TESTED_ON>
A549 NSCLC

>  <TGI>
> 100 µM

$$$$
>  <MOLECULE>
CC(CO)CCC(O)C(C)(O)C1CCC2(O)C3=CC(=O)C4CC(O)C(O)CC4(C)C3CCC12C (stereo not drawn)

>  <TESTED_ON>
A549 NSCLC

>  <TGI>
> 100 µM

$$$$
>  <MOLECULE>
COc1ccc(CNc2cnc3ccc(N)cc3n2)cc1OC

>  <TESTED_ON>
A549 NSCLC

>  <TGI>
> 100 µM

$$$$

Let us move to another entry and its TGI.
Request: Would you mind telling me what TGI value was observed for CCC(C)CN=C(N)c1ccc(N2CCN(c3ccc(C(N)=NCC(C)CC)cc3)CC2)cc1 (stereo not drawn) ?
Response: > 100 µM

---

# System: TK-10 renal
# ASSAY_DETAILS: NCI tumour cell line growth inhibition, 48 h
MEASURE: GI50

# annotated cases, reported GI50 shown
>  <COMPOUND>
COc1cc(-c2cc(-c3nc4ccc(F)cc4[nH]3)[nH]n2)cc(OC)c1OC

>  <MEASURE>
GI50

>  <RESULT>
4.39 µM

$$$$
>  <COMPOUND>
CC[N-]c1nnnn1CC.[Au+].c1ccc([PH+](c2ccccc2)c2ccccc2)cc1

>  <MEASURE>
GI50

>  <RESULT>
1.66 µM

$$$$
>  <COMPOUND>
CCCCCC[n+]1noc(N)c1-c1ccc(-c2c(N)on[n+]2CCCCCC)cc1

>  <MEASURE>
GI50

>  <RESULT>
2.81 µg/mL

$$$$
>  <COMPOUND>
CC[O-].CC[O-].CN(C)c1ccc([O-])cc1.CN(C)c1ccc([O-])cc1.[Ti+4]

>  <MEASURE>
GI50

>  <RESULT>
> 100 µM

$$$$
>  <COMPOUND>
COc1ccc(C2NC(=O)c3cc4c(cc3N2)OCO4)cc1 (stereo not given)

>  <MEASURE>
GI50

>  <RESULT>
19.3 µM

$$$$

// for each compound in input: emit GI50
1. O=S(=O)(Nc1cc(F)cc(F)c1)c1ccc(-c2cnc(C3CC3)o2)cc1
2. Nc1c(C(=O)N/N=C/c2ccco2)cnn1-c1ccnc2c(C(F)(F)F)cccc12
3. COc1ccc(C(O)c2cc3c(N)c(C(=O)Nc4ccccc4)sc3nc2C)cc1 (stereo not given)
4. COC(=O)c1ccc(C2SC(C)C(=O)N2NC(=O)C(O)c2ccccc2)cc1 (stereo not given)

Response:
1: 8.65 µM; 2: 55.9 µM; 3: 4.51 µM; 4: > 100 µM

Request: Would you mind telling me what GI50 value was observed for O=C([CH-]C(=O)C(F)(F)F)c1ccccc1.O=C([CH-]C(=O)C(F)(F)F)c1ccccc1.[O]=[U+2]=[O] ?
Response: 20.4 µM

---

# Tested on: U251 CNS
Outcome (select one): active, inactive

>  <COMPOUND>
CCNC(=O)N1CCc2c(Cl)c3c(c(OC)c2[C@@H]1[C@H]1OCc2c1ccc(OC)c2OC)OCCO3

>  <QUALITATIVE_LABEL>
inactive

$$$$
>  <COMPOUND>
COc1ccc(/C=C/C(=O)Nc2cc(/C=C\c3cc(OC)c(OC)c(OC)c3)cc(OC)c2OC)cc1OC

>  <QUALITATIVE_LABEL>
inactive

$$$$
>  <COMPOUND>
COc1ccc(CCc2nc3cc(-c4c(C)noc4C)ccc3n2CCN2CCOCC2)cc1

>  <QUALITATIVE_LABEL>
inactive

$$$$
>  <COMPOUND>
COc1ccc(C(O)c2cc3c(N)c(C(=O)Nc4ccccc4)sc3nc2C)cc1 (stereo not given)

>  <QUALITATIVE_LABEL>
active

$$$$
>  <COMPOUND>
CC(C)(C(=O)NCC(F)(F)C(F)(F)F)C(=O)N[C@@H]1C(=O)Nc2ccccc2-c2ccccc21

>  <QUALITATIVE_LABEL>
inactive

$$$$
>  <COMPOUND>
COC(=O)C(C)NP(=O)(OCc1ccc(Cn2cnc3c(N)ncnc32)cc1)Oc1ccccc1 (stereo not given)

>  <QUALITATIVE_LABEL>
inactive

$$$$

Request: Check the results log: what was the call for CC(=O)/C(=C\c1c(-c2ccccc2)[nH]c2ccccc12)S(C)(=O)=O ?
Response: inactive

---

# Test system: EKVX NSCLC
# ASSAY_DETAILS: NCI tumour cell line growth inhibition, 48 h
MEASURE: GI50

# annotated cases, reported GI50 shown
>  <COMPOUND>
CCC(C)CN=C(N)c1ccc(N2CCN(c3ccc(C(N)=NCC(C)CC)cc3)CC2)cc1 (stereo not given)

>  <GI50>
0.955 µM

$$$$
>  <COMPOUND>
C#CCNCCCN1C(=O)c2ccc3c4c(ccc(c24)C1=O)C(=O)N(CCCNCC#C)C3=O

>  <GI50>
0.302 µM

$$$$
>  <COMPOUND>
COc1ccc(/C=C(/C(=O)N2CCCCC2)c2cc(OC)c(OC)c(OC)c2)cc1

>  <GI50>
3.4 µM

$$$$
>  <COMPOUND>
COc1cc2c(cc1OCCCCCN1CCN(CCCCCOc3cc4c(cc3OC)C(=O)C3CCC[C@H]3C=N4)CC1)N=C[C@@H]1CCCC1C2=O (stereo not given in full)

>  <GI50>
41.3 µM

$$$$

Let us move to another entry and its GI50.
Request: Would you mind telling me what GI50 value was observed for C#CC#CC#CC#CC#CC#CC#CC#CC[C@@H]1OC[C@H](COC(=O)O[C@@H](C(=O)O[C@H]2C[C@@]3(O)[C@@H](OC(=O)c4ccccc4)[C@@H]4[C@]5(OC(C)=O)CO[C@@H]5C[C@H](O)[C@@]4(C)C(=O)[C@H](OC(C)=O)C(=C2C)C3(C)C)[C@@H](NC(=O)c2ccccc2)c2ccccc2)O1 ?
Response: > 25 µM

---

# Test system: MALME-3M melanoma
# ASSAY_DETAILS: NCI tumour cell line growth inhibition, 48 h
Record form. Attribute: GI50. Fill in for each entry.

# annotated cases, reported GI50 shown
>  <COMPOUND>
O=C(Nc1ccccc1C(=O)N/N=C(\c1ccccc1)c1ccccn1)c1ccccc1

>  <MEASURE>
GI50

>  <RESULT>
1.75 µM

$$$$
>  <COMPOUND>
CCCCCC[n+]1noc(N)c1-c1ccc(-c2c(N)on[n+]2CCCCCC)cc1

>  <MEASURE>
GI50

>  <RESULT>
1.81 µg/mL

$$$$
>  <COMPOUND>
CCCCCCCC/C(=C\C1=C(C)C(=O)C(OC)=C(OC)C1=O)C(=O)O

>  <MEASURE>
GI50

>  <RESULT>
51.3 µM

$$$$
>  <COMPOUND>
COc1ccc(CCc2nc3cc(-c4c(C)noc4C)ccc3n2CCN2CCOCC2)cc1

>  <MEASURE>
GI50

>  <RESULT>
6.64 µM

$$$$

Let us move to another entry and its GI50.
Request: Would you mind telling me what GI50 value was observed for COc1ccc(/C=C/C(=O)Nc2cc(/C=C\c3cc(OC)c(OC)c(OC)c3)cc(OC)c2OC)cc1OC ?
Response: 2.8 µM
